This listing pairs binders with measured Off-Rate Ratio to that of EM0005-86c.
- testedTarget: human PD-L1/His fusion protein (human, UniProt Q9NZQ7 19-239)
- Sequence (Q9NZQ7 19-239 limits assumed): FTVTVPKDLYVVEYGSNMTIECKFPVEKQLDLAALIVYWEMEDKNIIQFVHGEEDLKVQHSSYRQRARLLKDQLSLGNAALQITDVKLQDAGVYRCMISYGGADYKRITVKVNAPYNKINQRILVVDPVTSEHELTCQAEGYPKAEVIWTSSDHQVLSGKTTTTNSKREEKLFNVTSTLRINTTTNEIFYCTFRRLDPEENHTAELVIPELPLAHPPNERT
- assayText: BLI off-rate; test group 3
- Protocol: All 15 antibodies in Table 13 were assayed for and ranked by dissociation rate constant (koff). […] Briefly, antibodies were characterized for affinities and binding kinetics by Octet®RED96 biolayer interferometry (Pall ForteBio LLC). Antibodies were captured by Anti-hIgG Fc Capture (AHC) Biosensors (Pall) at a concentration of 100 nM for 30 seconds. […] Binding was measured by dipping sensors into a single concentration of recombinant human PD-L1/His fusion protein (Novoprotein). […]
Report only the number, with the unit % understood.

For reference, reported Off-Rate Ratio to that of EM0005-86c for HuEM0005-86-13 (antibody, human IgG1, V domains shown) VH: EVQLVQSGAEVKKPGASVKVSCKTSGYTFTTYGINWVRQAPGQGLEWIGYIYIGNGYTEYNEKFKGKATLTSDPSTRTAYMELSSLRSDDTAVYYCARDLMVIAPKTMDYWGQGTTVTVSS VL: DIQMTQSPSSVSASVGDRVTITCKASQDVGTAVAWYQQKPGKSPKLLIYWASTRHTGVPDRFTGSGSGTDFTLTISSLQPEDFATYFCQQYSSYPYTFGGGTKVEIK stands at 116

The recorded Off-Rate Ratio to that of EM0005-86c for entry HuEM0005-86-5 (antibody, human IgG1, V domains shown) VH: EVQLVQSGAEVKKPGASVKVSCKASGYTFTTYGINWVRQAPGQGLEWIGYIYIGNGYTEYNEKFKGKATLTSDTSTSTAYMELSSLRSDDTAVYYCARDLMVIAPKTMDYWGQGTTVTVSS VL: DIQMTQSPSSVSASVGDRVTITCKASQDVGTAVAWYQQKPGKAPKLLIYWASTRHTGVPDRFTGSGSGTDFTLTISSLQPEDFATYYCQQYSSYPYTFGGGTKVEIK equals 120

// HuEM0005-86-14 (antibody, human IgG1, V domains shown) VH: EVQLVQSGAEVKKPGASVKVSCKASGYTFTTYGINWVRQAPGQGLEWIGYIYIGNGYTEYNEKFKGRVTLTSDPSTRTAYMELSSLRSDDTAVYYCARDLMVIAPKTMDYWGQGTTVTVSS VL: DIQMTQSPSSVSASVGDRVTITCKASQDVGTAVAWYQQKPGKSPKLLIYWASTRHTGVPDRFTGSGSGTDFTLTISSLQPEDFATYFCQQYSSYPYTFGGGTKVEIK : Off-Rate Ratio to that of EM0005-86c value = 81

For record EM0005-86c-G55A (antibody, human IgG1, V domains shown, Chimeric antibody with G55A (Kabat) in CDR-H2; also called HuEM0005-86-G55A) VH: QVQLQQSGAELVRPGSSVKMSCKTSGYTFTTYGINWVKQRPGQGLEWIGYIYIGNAYTEYNEKFKGKATLTSDPSSRTAYMQLSSLTSEDSAIYFCARDLMVIAPKTMDYWGQGTSVTVSS VL: DIQMNQSHKFMSTSVGDRVSITCKASQDVGTAVAWYQQKPGQSPKLLIYWASTRHTGVPDRFTGGGSGTDFTLTISNVQSEDLADYFCQQYSSYPYTFGGGTKLEMK the listed Off-Rate Ratio to that of EM0005-86c is 108

Data provenance: patent US20230242675A1
